# System: Crude diglycosidase
# assay_overview: Examination of temperature in the conversion into isoflavone aglycons by diglycosidase using soybean materials
# Type: biochemical, Penicillium multicolor IAM7153
# test_context: 45 °C; heat treatment of enzyme: no; 0 h
endpoint_label: Decomposition efficiency of glycitin family in concentrated soybean protein (%)
Could you give me the number in %? Just the number is fine.

Quote Decomposition efficiency of glycitin family in concentrated soybean protein with test system Crude diglycosidase for COc1cc2c(=O)c(-c3ccc(O)cc3)coc2cc1O[C@@H]1O[C@H](COC(C)=O)[C@@H](O)[C@H](O)[C@H]1O
35.9

Quote Decomposition efficiency of glycitin family in concentrated soybean protein with test system Crude diglycosidase for COc1cc2c(=O)c(-c3ccc(O)cc3)coc2cc1O[C@@H]1O[C@H](CO)[C@@H](O)[C@H](O)[C@H]1O
52.3

Quote Decomposition efficiency of glycitin family in concentrated soybean protein with test system Crude diglycosidase for COc1cc2c(=O)c(-c3ccc(O)cc3)coc2cc1O[C@@H]1O[C@H](COC(=O)CC(=O)O)[C@@H](O)[C@H](O)[C@H]1O
0.4

Quote Decomposition efficiency of glycitin family in concentrated soybean protein with test system Crude diglycosidase for COc1cc2c(=O)c(-c3ccc(O)cc3)coc2cc1O
11.4

====

# System: Crude diglycosidase
# assay_overview: Examination of substrate concentration in the conversion into isoflavone aglycons by diglycosidase using soybean materials;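 also: percent of the isoflavone family total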
# Format: biochemical, Penicillium multicolor IAM7153
# test_context: concentrated soybean protein, substrate concentration 20%, heat treatment of enzyme no, reaction time 0 h
For each of the compounds below, state its Decomposition efficiency: ratio of each glycoside/aglycon within its isoflavone family.
Could you give me the number in %? Just the number is fine.

Quote Decomposition efficiency: ratio of each glycoside/aglycon within its isoflavone family with test system Crude diglycosidase for COc1cc2c(=O)c(-c3ccc(O)cc3)coc2cc1O[C@@H]1O[C@H](CO)[C@@H](O)[C@H](O)[C@H]1O
53.1

Quote Decomposition efficiency: ratio of each glycoside/aglycon within its isoflavone family with test system Crude diglycosidase for CC(=O)OC[C@H]1O[C@@H](Oc2ccc3c(=O)c(-c4ccc(O)cc4)coc3c2)[C@H](O)[C@@H](O)[C@@H]1O
44.1

Quote Decomposition efficiency: ratio of each glycoside/aglycon within its isoflavone family with test system Crude diglycosidase for CC(=O)OC[C@H]1O[C@@H](Oc2cc(O)c3c(=O)c(-c4ccc(O)cc4)coc3c2)[C@H](O)[C@@H](O)[C@@H]1O
43.7

====

For each of the compounds below, state its Decomposition efficiency of genistin family in defatted soybean.
# System: Crude diglycosidase
# assay_overview: Examination of temperature in the conversion into isoflavone aglycons by diglycosidase using soybean materials
# Assay type: biochemical, Penicillium multicolor IAM7153
# test_context: 45° C., heat treatment of enzyme no, reaction time 0 h
# Description: Into 400 μL of 20 mM acetate buffer of pH 4.0 was suspended 50 mg of each of various soybean materials (roasted soy flour (manufactured by Fuji Shokuryo K.K.), soymilk (manufactured by Gitoh Shokuhin K.K.), defatted soybean (manufactured by Fuji Seiyu K.K.), concentrated soybean protein (manufactured by Fuji Seiyu K.K.)), whereby a substrate solution was prepared. Crude diglycosidase was diluted with 20 mM acetate buffer of pH 4.0 to be the glycosidase activity of 1.88 AU/mL. […]
Could you give me the number in %? Just the number is fine.

Fill in Decomposition efficiency of genistin family in defatted soybean for record O=c1c(-c2ccc(O)cc2)coc2cc(O)cc(O)c12
14.5

Fill in Decomposition efficiency of genistin family in defatted soybean for record O=C(O)CC(=O)OC[C@H]1O[C@@H](Oc2cc(O)c3c(=O)c(-c4ccc(O)cc4)coc3c2)[C@H](O)[C@@H](O)[C@@H]1O
47.0

Fill in Decomposition efficiency of genistin family in defatted soybean for record CC(=O)OC[C@H]1O[C@@H](Oc2cc(O)c3c(=O)c(-c4ccc(O)cc4)coc3c2)[C@H](O)[C@@H](O)[C@@H]1O
1.5

Fill in Decomposition efficiency of genistin family in defatted soybean for record O=c1c(-c2ccc(O)cc2)coc2cc(O[C@@H]3O[C@H](CO)[C@@H](O)[C@H](O)[C@H]3O)cc(O)c12
37.0

Origin of the recorded values: patent US7118895B2
